Target: T1, anti-CD28 Fab (SEQ ID NOs: 202, 203)
T1 construct: biotinylated and captured on neutravidin coated plates in the phage ELISA
T1 sequence (VH, as listed by the source, chain 1 of 2): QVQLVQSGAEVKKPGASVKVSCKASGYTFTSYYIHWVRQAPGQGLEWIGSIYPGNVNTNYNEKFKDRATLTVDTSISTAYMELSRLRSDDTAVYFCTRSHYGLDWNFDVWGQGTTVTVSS
T1 sequence (VL, as listed by the source, chain 2 of 2): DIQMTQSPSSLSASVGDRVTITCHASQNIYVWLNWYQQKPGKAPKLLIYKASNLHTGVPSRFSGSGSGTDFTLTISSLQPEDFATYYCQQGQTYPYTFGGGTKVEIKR
Assay: phage binding ELISA on captured biotinylated Fab;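 also: clonal phage supernatants added to wells preincubated with CD28 antigen or blocking buffer only, bound phage detected by ELISA with horseradish-conjugated anti-M13 antibody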
observedProperty: Anti-CD28 Fab (SEQ ID NOs: 202, 203) signal

{"binder": "TCAAGANWEWPWCF [Phage-928]", "number": 2.22}
{"binder": "TCAAGASYAWPWCL [Phage-960]", "number": 2.03}
{"binder": "TCSAGATYEWPRCL [Phage-899]", "number": 1.84}
{"binder": "RCSAGFHYPLSLCL [Phage-933]", "number": 2.18}
